Molecular target: smooth muscle angiotensin II receptor
Assay: Assay A: Angiotensin II Binding Activity
Conditions: 50% displacement of specifically bound 125I-AII; rat uterine membranes; pH 7.5; 25° C., 60 min
Measure: IC50 (nM)

Some solved cases for reference:
CCCCn1nc(C(OCCC)OCCC)nc1Cc1ccc(-c2ccccc2-c2nnn[nH]2)nc1; 26
CCCn1nc(C(C)(F)F)nc1Cc1ccc(-c2ccccc2-c2nnn[nH]2)nc1; 410
CCCn1nc(C(F)(F)CC)nc1Cc1ccc(-c2ccccc2-c2nnn[nH]2)nc1; 370
CCCCn1nc(C(C)(F)F)nc1Cc1ccc(-c2ccccc2-c2nnn[nH]2)nc1; 160
CCCCn1nc(C(F)F)nc1Cc1ccc(-c2ccccc2-c2nnn[nH]2)nc1; 420

[I] CCCCn1nc(C(OCC)OCC)nc1Cc1ccc(-c2ccccc2-c2nnn[nH]2)nc1
[II] CCCCn1nc(C(C)(OC)OC)nc1Cc1ccc(-c2ccccc2-c2nnn[nH]2)nc1
q: Among I and II , whose measured IC50 is the smaller figure? API: response body contains the label of the selected item.
a: I
(I: 9.8 nM, II: 59 nM)

###

Target: rabbit aortic rings (Oryctolagus cuniculus, UniProt P34976)
Construct: The thoracic aorta was removed, cleaned of adherent fat and connective tissue and then cut into 3-mm ring segments; from tissue; host or cells: rabbit thoracic aorta rings, endothelium removed
Sequence (P34976 whole entry): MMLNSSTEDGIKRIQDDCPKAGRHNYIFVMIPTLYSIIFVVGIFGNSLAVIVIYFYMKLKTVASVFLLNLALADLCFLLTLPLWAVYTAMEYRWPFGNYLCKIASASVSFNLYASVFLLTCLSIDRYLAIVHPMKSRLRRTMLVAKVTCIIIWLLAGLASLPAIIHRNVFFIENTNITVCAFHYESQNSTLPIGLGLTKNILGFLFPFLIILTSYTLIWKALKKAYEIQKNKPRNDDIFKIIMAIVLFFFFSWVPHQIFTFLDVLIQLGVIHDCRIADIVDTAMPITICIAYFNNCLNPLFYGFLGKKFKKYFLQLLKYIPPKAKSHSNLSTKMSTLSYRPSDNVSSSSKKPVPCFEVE
Assay: Assay B: In Vitro Vascular Smooth Muscle Response for AII
Set-up: species or system rabbit (male New Zealand white)
Conditions: rabbit aorta rings, two rabbits per antagonist; antagonist 10^-5 M, 5 minutes; AII contraction; Schild; read-out: pA2 (second of two values) (converted)
Measure: Kb (nM)

Some solved cases for reference:
CCCCn1nc(C(=O)N(C)C(C)(C)C)nc1Cc1ccc(-c2ccccc2-c2nnn[nH]2)nc1; 77.6
CCCCn1nc(/C=C/c2cccs2)nc1Cc1ccc(-c2ccccc2-c2nnn[nH]2)nc1; 4.17
CCCCn1nc(C(OCCC)OCCC)nc1Cc1ccc(-c2ccccc2-c2nnn[nH]2)nc1; 14.1
CCCCCc1nc(Cc2ccc(-c3ccccc3-c3nnn[nH]3)nc2)n(CCCC)n1; 21.9
CCCCc1nc(Cc2ccc(-c3ccccc3-c3nnn[nH]3)nc2)n(CC(CC)CC)n1; 603

[I] CCCCn1nc(C(=O)NC(C)(C)C)nc1Cc1ccc(-c2ccccc2-c2nnn[nH]2)nc1
[II] CCCCn1nc(C(OC(C)C)OC(C)C)nc1Cc1ccc(-c2ccccc2-c2nnn[nH]2)nc1
q: Among I and II , whose measured Kb is the smaller figure? API: response body contains the label of the selected item.
a: II

###

Biological target: smooth muscle angiotensin II receptor
Test: Assay A: Angiotensin II Binding Activity
Conditions: 50% displacement of specifically bound 125I-AII; rat uterine membranes; pH 7.5; 25° C., 60 min
pIC50: −log10 of the molar value.
Measure: pIC50

CCCCn1nc(C(C)=O)nc1Cc1ccc(-c2ccccc2-c2nnn[nH]2)nc1; 6.41
CCCCn1nc(C(=O)N(C)C(C)(C)C)nc1Cc1ccc(-c2ccccc2-c2nnn[nH]2)nc1; 7.55
CCCCn1nc(C=O)nc1Cc1ccc(-c2ccccc2-c2nnn[nH]2)nc1; 6.51
CCCn1nc(C(F)F)nc1Cc1ccc(-c2ccccc2-c2nnn[nH]2)nc1; 6.42
CCCn1nc(C(F)(F)CCC)nc1Cc1ccc(-c2ccccc2-c2nnn[nH]2)nc1; 6.82
CCCCn1nc(C(=O)CCC)nc1Cc1ccc(-c2ccccc2-c2nnn[nH]2)nc1; 7.19
CCCCc1nc(Cc2ccc(-c3ccccc3-c3nnn[nH]3)nc2)n(CC(C)(C)C)n1; 5.96
CCCn1nc(C(OC)OC)nc1Cc1ccc(-c2ccccc2-c2nnn[nH]2)nc1; 6.74

[A] CCCCn1nc(C(=O)NC)nc1Cc1ccc(-c2ccccc2-c2nnn[nH]2)nc1
[B] CCCCn1nc(C(O)CCC)nc1Cc1ccc(-c2ccccc2-c2nnn[nH]2)nc1 (centres unmarked)
q: Among A and B , whose measured pIC50 is the smaller figure? API: response body contains the label of the selected item.
a: A

[P] CCCCn1nc(C(=O)NC(C)(C)C)nc1Cc1ccc(-c2ccccc2-c2nnn[nH]2)nc1
[Q] CCCCn1nc(C(OC)OC)nc1Cc1ccc(-c2ccccc2-c2nnn[nH]2)nc1
q: Task for the reader: decide whether P or Q has the larger pIC50. API: response body contains the label of the selected item.
a: Q
(Q: 7.57, P: 7.05)

[I] CCCCCn1nc(CCCC)nc1Cc1ccc(-c2ccccc2-c2nnn[nH]2)nc1
[II] CCCCn1nc(CCc2cccs2)nc1Cc1ccc(-c2ccccc2-c2nnn[nH]2)nc1
q: Task for the reader: decide whether I or II has the larger pIC50. API: response body contains the label of the selected item.
a: II
